Please respond with reported pIC50 for every item in the list.
- ASSAYED TARGET: human P2X3 receptor (Homo sapiens (Human))
- ASSAY: Evaluation of human P2X3 receptor inhibitory activity (Test Example 1-1, FDSS 3000, 96-well, 50 nM ATP)
- Assay type: cell-based
- DETAILS: human P2X3 receptor in C6BU-1 cells; Test Example 1-1 (compounds I-001 to I-300)
Lab note: report pIC50 as minus log10 of the concentration in molar units, number only.

# input Could you share which pIC50 value was measured for `CCC(=O)Nc1c[nH]/c(=N\c2ccc(Oc3ccnc(C(N)=O)c3)cc2)n(Cc2ccc(Cl)cc2)c1=O` ?
# output 8.15

# input // same read-out, input: `CCCn1c(=O)cc(Nc2ccc(Oc3cccc(C#N)n3)c(C)n2)n(Cc2ccc(Cl)cc2)c1=O`
# output 8.40

# input // same read-out, input: `CCOC(=O)c1cnc(Oc2ccc(Nc3ncc(C(=O)OCC)c(=O)n3Cc3ccc(Cl)cc3)cc2)s1`
# output 7.89

# input // same read-out, input: `CCOC(=O)c1c[nH]/c(=N\c2ccc(Oc3cccc(F)n3)cc2)n(Cc2ccc(Cl)cc2)c1=O`
# output 7.89

# input // same read-out, input: `CC(=O)N(C)c1c[nH]/c(=N\c2ccc(Oc3cccc(C#N)n3)cc2)n(Cc2ccc(Cl)cc2)c1=O`
# output 7.35

# input // same read-out, input: `O=C(O)c1c[nH]/c(=N\c2ccc(Oc3ccc(F)cn3)cc2)n(Cc2ccc(Cl)cc2)c1=O`
# output 6.33

# input // same read-out, input: `CCOC(=O)c1cccc(Oc2ccc(Nc3cc(=O)n(CC)c(=O)n3Cc3ccc(Cl)cc3)nc2)c1`
# output 6.99

---

- ASSAYED TARGET: human P2X3 receptor (Homo sapiens (Human), UniProt P56373)
- Sequence (P56373 whole entry): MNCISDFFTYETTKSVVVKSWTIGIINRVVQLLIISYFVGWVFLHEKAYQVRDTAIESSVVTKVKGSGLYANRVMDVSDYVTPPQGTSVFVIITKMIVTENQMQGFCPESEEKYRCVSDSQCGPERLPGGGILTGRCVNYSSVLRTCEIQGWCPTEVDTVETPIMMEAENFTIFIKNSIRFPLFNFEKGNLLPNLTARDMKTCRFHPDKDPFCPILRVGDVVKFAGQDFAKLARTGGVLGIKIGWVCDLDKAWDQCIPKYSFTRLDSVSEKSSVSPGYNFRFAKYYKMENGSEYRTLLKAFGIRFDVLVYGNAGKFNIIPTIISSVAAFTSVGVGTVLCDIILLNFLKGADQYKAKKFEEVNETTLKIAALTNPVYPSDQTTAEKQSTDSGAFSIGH
- ASSAY: Evaluation of human P2X3 receptor inhibitory activity (Test Example 1-2, FLIPR 384, 384-well, 150 nM ATP)
- Assay type: cell-based
- DETAILS: C6BU-1 cell transfected with human P2X3 receptor gene; method of Test Example 1-2 (compounds I-301 to I-483); read-out: IC50 (human P2X3 receptor inhibitory activity)
Please respond with reported IC50 for every item in the list.

# input Could you share which IC50 value was measured for `CN(C)c1ncc(Nc2ccc(Oc3ccc(F)cn3)cc2)c(Cc2ccc(F)cc2)n1` ?
# output < 30 µM

# input // same read-out, input: `CC(C)(C)c1cc(Nc2ccc(Oc3cccc(C(N)=O)n3)cc2)n(Cc2ccc(Cl)cc2)n1`
# output < 30 µM

# input // same read-out, input: `O=C(O)c1cccc(Oc2ccc(/N=c3\[nH]ccc(=O)n3Cc3ccc(Cl)cc3)cc2)n1`
# output < 30 µM

---

- ASSAYED TARGET: human P2X3 receptor (Homo sapiens (Human))
- ASSAY: Evaluation of human P2X3 receptor inhibitory activity (Test Example 1-2, FLIPR 384, 384-well, 150 nM ATP)
- Format: cell-based
- DETAILS: human P2X3 receptor in C6BU-1 cells; Test Example 1-2 (compounds I-301 to I-483); read-out: P2X3 IC50
- Text: […]
Please respond with reported pIC50 for every item in the list.
Lab note: report pIC50 as minus log10 of the concentration in molar units, number only.

# input Could you share which pIC50 value was measured for CCOC(=O)c1noc(-c2c[nH]/c(=N\c3ccc(Oc4ccon4)cc3)n(Cc3ccc(Cl)cc3)c2=O)n1 [Compound I-437] ?
# output 6.91

# input // same read-out, input: CCOC(=O)c1cn(Cc2ccc(Cl)cc2)c(Nc2ccc(Oc3ccc(F)cn3)cc2)cc1=O [Compound I-463]
# output 7.59

# input // same read-out, input: CCC(=O)Nc1c[nH]/c(=N\c2ccc(Oc3cccc(CC(=O)OC)c3)cc2)n(Cc2ccc(Cl)cc2)c1=O [Compound I-331]
# output 6.51

# input // same read-out, input: O=C(NCCCO)c1cn(Cc2ccc(Cl)cc2)c(Nc2ccc(Oc3cccc(F)n3)cc2)nc1=O [Compound I-418]
# output 7.35

# input // same read-out, input: Cc1noc(-c2c[nH]/c(=N\c3ccc(Oc4ccon4)cc3)n(Cc3ccc(Cl)cc3)c2=O)n1 [Compound I-345]
# output 7.42

# input // same read-out, input: CCn1c(=O)[nH]c(Nc2ccc(Oc3cccc(C(N)=O)n3)cc2)c(Cc2ccc(Cl)cc2)c1=O [Compound I-458]
# output 7.82

# input // same read-out, input: Cc1nc(Nc2cc(=O)n(CC(F)(F)C(=O)O)c(=O)n2Cc2ccc(Cl)cc2)ccc1Oc1ccc(F)cn1 [Compound I-405]
# output 8.30

# input // same read-out, input: CC(C)c1c[nH]/c(=N\c2ccc(Oc3ccnc(C(=O)O)c3)cc2)n(Cc2ccc(Cl)cc2)c1=O [Compound I-409]
# output 7.62

# input // same read-out, input: N#CCNC(=O)c1c[nH]/c(=N\c2ccc(Oc3ccc(F)cn3)cc2)n(Cc2ccc(Cl)cc2)c1=O [Compound I-426]
# output 7.82

# input // same read-out, input: Cc1noc(-c2c[nH]/c(=N\c3ccc(Oc4ncc(C(=O)O)s4)cc3)n(Cc3ccc(Cl)cc3)c2=O)n1 [Compound I-314]
# output 8.00

# input // same read-out, input: CCC(=O)Nc1c[nH]/c(=N\c2ccc(Oc3ccc(C(N)=O)nn3)cc2)n(Cc2ccc(Cl)cc2)c1=O [Compound I-309]
# output 8.05

# input // same read-out, input: N#Cc1cccc(Oc2ccc(/N=c3\[nH]cc(Nc4ccon4)c(=O)n3Cc3ccc(Cl)cc3)cc2)n1 [Compound I-319]
# output 7.72

# input // same read-out, input: O=C(O)c1cccc(Oc2ccc(/N=c3\[nH]cc(C(F)(F)F)c(=O)n3Cc3ccc(Cl)cc3)cc2)n1 [Compound I-472]
# output 7.82

# input // same read-out, input: CC(=O)NCCNC(=O)c1cn(Cc2ccc(Cl)cc2)c(Nc2ccc(Oc3cccc(F)n3)cc2)nc1=O [Compound I-370]
# output 6.42

# input // same read-out, input: Cc1noc(C)c1NC(=O)c1cn(Cc2ccc(Cl)cc2)c(Nc2ccc(Oc3cccc(F)n3)cc2)nc1=O [Compound I-377]
# output 7.43

# input // same read-out, input: Cc1nnc(-c2c[nH]/c(=N\c3ccc(Oc4ccon4)cc3)n(Cc3ccc(Cl)cc3)c2=O)o1 [Compound I-349]
# output 7.14

# input // same read-out, input: CC(=O)OCC(=O)NNC(=O)c1c[nH]/c(=N\c2ccc(Oc3ccon3)cc2)n(Cc2ccc(Cl)cc2)c1=O [Compound I-343]
# output 7.08

# input // same read-out, input: COC(=O)c1cncc(Oc2ccc(/N=c3\[nH]cc(C(C)C)c(=O)n3Cc3ccc(Cl)cc3)cc2)c1 [Compound I-367]
# output 6.33

# input // same read-out, input: O=C(NCC(F)(F)F)c1c[nH]/c(=N\c2ccc(Oc3ccon3)cc2)n(Cc2ccc(Cl)cc2)c1=O [Compound I-452]
# output 7.01

# input // same read-out, input: NNC(=O)c1c[nH]/c(=N\c2ccc(Oc3ccon3)cc2)n(Cc2ccc(Cl)cc2)c1=O [Compound I-423]
# output 7.09

# input // same read-out, input: CCCc1c[nH]/c(=N\c2ccc(Oc3cccc(C#N)n3)cc2)n(Cc2ccc(Cl)cc2)c1=O [Compound I-434]
# output 6.71

# input // same read-out, input: N#Cc1cccc(Oc2ccc(/N=c3\[nH]cc(-c4ccccc4)c(=O)n3Cc3ccc(Cl)cc3)cc2)n1 [Compound I-408]
# output 6.39

# input // same read-out, input: CC(C)c1c[nH]/c(=N\c2ccc(Oc3ccc(C(=O)O)cn3)cc2)n(Cc2ccc(Cl)cc2)c1=O [Compound I-400]
# output 7.80

# input // same read-out, input: CC1(NC(=O)c2cn(Cc3ccc(Cl)cc3)c(Nc3ccc(Oc4cccc(F)n4)cc3)nc2=O)CCOCC1 [Compound I-385]
# output 7.80

# input // same read-out, input: NC(=O)c1noc(-c2c[nH]/c(=N\c3ccc(Oc4ccon4)cc3)n(Cc3ccc(Cl)cc3)c2=O)n1 [Compound I-441]
# output 7.16

# input // same read-out, input: O=C(NC1CCOCC1)c1cn(Cc2ccc(F)cc2F)c(Nc2ccc(Oc3cccc(F)n3)cc2)nc1=O [Compound I-402]
# output 8.05

# input // same read-out, input: CC(=O)NNC(=O)c1c[nH]/c(=N\c2ccc(Oc3ccon3)cc2)n(Cc2ccc(Cl)cc2)c1=O [Compound I-347]
# output 6.82

# input // same read-out, input: COC(=O)c1cccc(Oc2ccc(/N=c3\[nH]cc(C(F)(F)F)c(=O)n3Cc3ccc(Cl)cc3)cc2)n1 [Compound I-471]
# output 6.17

---

- ASSAYED TARGET: human P2X3 receptor (Homo sapiens (Human), UniProt P56373)
- ASSAY: Evaluation of human P2X3 receptor inhibitory activity (Test Example 1-1, FDSS 3000, 96-well, 50 nM ATP)
- Format: cell-based
- DETAILS: human P2X3 receptor in C6BU-1 cells; Test Example 1-1 (compounds I-001 to I-300)
Classify: TRUE when IC50 is strictly less than 60 nM; FALSE when IC50 is not.

# input Does the reported IC50 of `O=C(Nc1c[nH]/c(=N\c2ccc(Oc3ccon3)cc2)n(Cc2ccc(Cl)cc2)c1=O)C1CNC1` stay below 60 nM?
# output FALSE

# input // same read-out, input: `NC(=O)c1c[nH]/c(=N\c2ccc(Oc3ccc(F)cn3)c(F)c2)n(Cc2ccc(Cl)cc2)c1=O`
# output TRUE

# input // same read-out, input: `CN(C)C(=O)CNC(=O)c1cn(Cc2ccc(Cl)cc2)c(Nc2ccc(Oc3ccc(F)cn3)cc2)nc1=O`
# output TRUE

# input // same read-out, input: `O=C(NC1CCOCC1)c1cn(Cc2ccccc2)c(Nc2ccc(Oc3cccc(F)n3)cc2)nc1=O`
# output FALSE

# input // same read-out, input: `COc1ccc(-c2c[nH]/c(=N\c3ccc(Oc4ccon4)cc3)n(Cc3ccc(Cl)cc3)c2=O)cn1`
# output FALSE

# input // same read-out, input: `O=C(NC1CCOCC1)c1cn(Cc2ccccc2F)c(Nc2ccc(Oc3cccc(F)n3)cc2)nc1=O`
# output TRUE

# input // same read-out, input: `COC(=O)[C@@H](C)Cn1c(=O)cc(Nc2ccc(Oc3ncccc3F)cc2)n(Cc2ccc(Cl)cc2)c1=O`
# output TRUE

# input // same read-out, input: `Cc1cc(Nc2nc(=O)c(C(=O)NC3CCOCC3)cn2Cc2ccc(Cl)cc2)ccc1Oc1cccc(F)n1`
# output TRUE

# input // same read-out, input: `CCn1c(=O)cc(Nc2ccc(Oc3cccc(C(N)=O)n3)c(F)c2)n(Cc2ccc(Cl)cc2)c1=O`
# output TRUE

# input // same read-out, input: `Cn1cc(C(=O)Nc2c[nH]/c(=N\c3ccc(Oc4ccon4)cc3)n(Cc3ccc(Cl)cc3)c2=O)cn1`
# output FALSE

# input // same read-out, input: `O=C(Nc1cnc(Nc2ccc(Oc3ccon3)cc2)n(Cc2ccc(Cl)cc2)c1=O)C1CCOCC1`
# output TRUE

# input // same read-out, input: `O=C(Nc1cnc(Nc2ccc(Oc3ccc(F)cn3)cc2)n(Cc2ccc(Cl)cc2)c1=O)C1CCOCC1`
# output TRUE

# input // same read-out, input: `CCc1oc2ccc(Nc3ncc(C(=O)NC4CCOCC4)c(=O)n3Cc3ccc(Cl)cc3)cc2c1C`
# output FALSE

# input // same read-out, input: `Cc1oncc1C(=O)Nc1c[nH]/c(=N\c2ccc(Oc3ccon3)cc2)n(Cc2ccc(Cl)cc2)c1=O`
# output TRUE

# input // same read-out, input: `COC(=O)[C@@H](C)Cn1c(=O)cc(Nc2ccc(Oc3ccccc3)cc2)n(Cc2ccc(Cl)cc2)c1=O`
# output FALSE

# input // same read-out, input: `Cc1cnc(-c2c[nH]/c(=N\c3ccc(Oc4cccc(C(N)=O)n4)cc3)n(Cc3ccc(Cl)cc3)c2=O)o1`
# output TRUE

# input // same read-out, input: `CCc1oc2ccc(/N=c3\[nH]cc(CC(N)=O)c(=O)n3Cc3ccc(Cl)cc3)cc2c1C`
# output FALSE

# input // same read-out, input: `O=C(NCCO)c1c[nH]/c(=N\c2ccc(Oc3ccon3)cc2)n(Cc2ccc(Cl)cc2)c1=O`
# output FALSE

# input // same read-out, input: `CN(C)C(=O)c1c[nH]/c(=N\c2ccc(Oc3cccc(F)n3)cc2)n(Cc2ccc(Cl)cc2)c1=O`
# output FALSE

# input // same read-out, input: `NC(=O)c1c[nH]/c(=N\c2ccc(Oc3ccon3)cc2)n(Cc2ccc(Cl)cc2)c1=O`
# output TRUE

# input // same read-out, input: `CCC(=O)Nc1c[nH]/c(=N\c2ccc(Oc3ccnc(C(N)=O)c3)cc2)n(Cc2ccc(Cl)cn2)c1=O`
# output FALSE

# input // same read-out, input: `CCOC(=O)c1c[nH]/c(=N\c2ccc(Oc3ncccc3F)cc2)n(Cc2ccc(Cl)cc2)c1=O`
# output TRUE

# input // same read-out, input: `O=C(Nc1cnc(Nc2ccc(Oc3nccs3)cc2)n(Cc2ccc(Cl)cc2)c1=O)C1CCOCC1`
# output TRUE

# input // same read-out, input: O=C(Nc1c[nH]/c(=N\c2ccc(Oc3ccon3)cc2)n(Cc2ccc(Cl)cc2)c1=O)C1CCOC1 (stereo not shown) [Compound I-212]
# output TRUE

Data provenance is patent US9550763B2.
